- Tested on: BT-549
- Protocol Summary: NCI tumour cell line growth inhibition, 48 h
The source made the active and inactive calls. Rule as the data show it: active = GI50 up to about 1.1 µM and inactive = higher.
Measured Attribute: GI50

• COc1ccc2c(c1OC)C(=O)N1C2=Cc2c(cc3c(c2OC)OCO3)CC1N(C)C (stereo not given) = 33.3 µM (inactive)
• O=P(OCc1ccccc1)(OCc1ccccc1)C(O)/C=C/c1ccccc1 (stereo not given) = 28.2 µM (inactive)
• Cc1[nH]c2ccccc2c1/C=N/NC(=O)c1cccc(I)c1 = 21.9 µM (inactive)
• Nc1nncc2[nH]cnc12 = 26.9 µM (inactive)
• C[C@@H]1C[C@H]2CC[C@H](O2)[C@H](C)C(=O)O[C@@H](C)C[C@@H]2CC[C@@H](O2)[C@@H](C)C(=O)O[C@H](C)C[C@H]2CC[C@H](O2)[C@H](C)C(=O)O[C@@H](C)C[C@@H]2CC[C@@H](O2)[C@@H](C)C(=O)O1 = 0.396 µM (active)
• CCCCC(=O)c1ccc2ccccc2c1O = > 100 µM (inactive)
• CC(C)(C)c1cc(C(=O)/C=C/c2c(Cl)cccc2Cl)cc(C(C)(C)C)c1O = 17.4 µM (inactive)
• Nc1ccc2c(c1)C(=O)c1ccccc1-2 = 34 µM (inactive)
• CN1CCCCCC(=N\O)/C(=N/O)CCCCC1 = 80.7 µM (inactive)
• Nc1nc(N)c(-c2cccc(C(F)(F)F)c2)c(Cc2cccc(C(F)(F)F)c2)n1 = 10.2 µM (inactive)
• CC1(C)C2CCC(CN)(C2)C1N (stereo not given) = > 100 µM (inactive)
• C=C[C@]1(C)CC[C@]2(C)C(CC[C@@]3(C)C2C[C@H](O)[C@H](O)[C@@]3(C)O)C1 (stereo not given in full) = > 100 µM (inactive)
• C[C@@H]1Nc2cc(NC(=O)OCCF)nc(N)c2N=C1c1ccccc1 = 84.1 µM (inactive)
• COc1ccc2[nH]c3c(C)c4cnccc4c(C)c3c2c1 = 7.48 µM (inactive)
• CC[C@@]1(OP(=O)(O)O)C(=O)OCc2c1cc1n(c2=O)Cc2cc3ccccc3nc2-1 = 0.201 µM (active)
• CCOC(=O)c1nc2c3c(ncn2n1)Oc1c(c(-c2ccccc2)nn1-c1ccccc1)C3c1ccc(Cl)cc1 (stereo not given) = > 100 µM (inactive)
• O=S(=O)(O)c1ccc(/N=N/c2ccc(/N=N/c3c(O)c(S(=O)(=O)O)cc4cc(S(=O)(=O)O)ccc34)cc2)cc1 = > 100 µM (inactive)
• Cc1ccc(SCC(OCn2cnc3c(Cl)nc(N)nc32)[C@H](C)F)cc1 (stereo not given in full) = 52.4 µM (inactive)
• CCOC(=O)C(CS)NC(=O)CCCCCCCC(=O)O (stereo not given) = > 100 µM (inactive)
• O=c1[nH]nc(-c2ccccc2)c2[nH]c(-c3ccccc3)cc12 = > 100 µM (inactive)

Taken from ChEMBL document CHEMBL1201862.
